Measured values drawn from PubChem BioAssay AID2060910 for this set.

Tested on: 242566-281-R-J2-PDC complex spheroid viability;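 also: spheroids exposed to compound for 7 days before readout; 100% = DMSO vehicle control wells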
MEASUREMENT_DESCRIPTION: Anticancer human tumor 242566-281-R-J2-PDC patient-derived pancreatic carcinoma cell line growth inhibition [RAS]
STUDY_CONDITIONS: second compound 0.03 µM; first compound 0.000949 µM; hits give low values
MEASURE_NAME: viability, T/C (%)
Answers are plain numbers, in %.

CCc1c2c(nc3ccc(O)cc13)-c1cc3c(c(=O)n1C2)COC(=O)[C@]3(O)CC + CCn1c(-c2cc(N3CCN(C)CC3)cnc2C(C)OC)c2c3cc(ccc31)-c1csc(n1)CC(NC(=O)C1CC1C)C(=O)N1CCCC(N1)C(=O)OCC(C)(C)C2
33
CCc1c2c(nc3ccc(O)cc13)-c1cc3c(c(=O)n1C2)COC(=O)[C@]3(O)CC + CCn1c(-c2cccnc2C(C)OC)c2c3cc(ccc31)N1CCOC(CC(NC(=O)C(C(C)C)N(C)C(=O)C3(F)CCN(C(=O)C#CC(C)(C)N(C)C)CC3)C(=O)N3CCCC(N3)C(=O)OCC(C)(C)C2)C1
100
CC1(C)CCC(Nc2ncc(C(F)(F)F)c(-c3c[nH]c4c(P(C)(C)=O)c(C#N)ccc34)n2)CN1 (centres undefined) + CCn1c(-c2cc(N3CCN(C)CC3)cnc2C(C)OC)c2c3cc(ccc31)-c1csc(n1)CC(NC(=O)C1CC1C)C(=O)N1CCCC(N1)C(=O)OCC(C)(C)C2
30.7

Then this compound:
Measured viability, T/C of CC1(C)CCC(Nc2ncc(C(F)(F)F)c(-c3c[nH]c4c(P(C)(C)=O)c(C#N)ccc34)n2)CN1 (centres undefined) + CCn1c(-c2cccnc2C(C)OC)c2c3cc(ccc31)N1CCOC(CC(NC(=O)C(C(C)C)N(C)C(=O)C3(F)CCN(C(=O)C#CC(C)(C)N(C)C)CC3)C(=O)N3CCCC(N3)C(=O)OCC(C)(C)C2)C1 : 95.4
